- Test system: SK-OV-3 ovarian
- ASSAY PROCEDURE: NCI-60 one-dose screen, 48 h (100 = growth as untreated, 0 = no growth, -100 = all killed)
- TEST PARAMETERS: 10 µM
The panel holds about 83,000 compounds, 20% with a hit somewhere; the sample as a whole holds those more often.
ASSAY READOUT: growth (%)
Return type: number; implicit unit %.

| INPUT SMILES | growth / % |
| --- | --- |
| COc1ccc(-c2[nH]ncc2Nc2cc(OC)c(OC)c(OC)c2)cc1 | 18.4 |
| CN1CCN(C(=O)OCCOCCOC(=O)N2CCN(C)CC2)CC1 | 117 |
| Brc1ccc(SCN(CSc2ccc(Br)cc2)Cc2ccccc2)cc1 | 93.9 |
| CSc1ccc(OC(C)=O)cc1C | 95 |
| O=C(O)CCN1CCN(c2cccc(Cl)c2)CC1 | 104 |

In the following, a different compound is considered.
Kindly note the recorded growth for `COc1ccc(-c2c3c(N)c4c(nc3nc3c2c(C)nn3-c2ccccc2)CCCC4)cc1` , which is 103
